The reported measurements were obtained from patent US10940139B2.

Target: KRas G12D mutant protein (Homo sapiens (Human), UniProt P01116, G12D)
Sequence (P01116-2 other isoform, or with tags, fused parts or gaps G12D): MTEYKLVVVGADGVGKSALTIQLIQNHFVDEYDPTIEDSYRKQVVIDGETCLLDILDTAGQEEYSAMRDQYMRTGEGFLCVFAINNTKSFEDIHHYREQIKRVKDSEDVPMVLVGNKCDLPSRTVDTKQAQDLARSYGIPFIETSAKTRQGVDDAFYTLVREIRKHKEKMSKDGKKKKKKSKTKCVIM
Assay: Ras GTP binding domain inhibition assay (labeled GTP)
Conditions: at 20 μM; read-out: KRas G12D % Inh.
endpoint label: inhibition at 20 µM

Looking up Oc1nc(-c2ccccn2)nc2c(CC3CCNCC3)csc12 [drawing 3805] , I found its inhibition at 20 µM recorded as 51 to 75%

Hi there! I need inhibition at 20 µM for each item below, if you can.
1. O=S1(=O)CCN(Cc2cccc(-c3csc4c(O)nc(-c5ccccn5)nc34)c2)CC1 [drawing 3736]
2. Oc1nc(-c2ccccn2)nc2cc(-c3ccccc3)sc12 [drawing 3880]
3. Oc1nc(-c2ccccn2)nc2sc3c(c12)CCNC3 [drawing 3723]

Response:
1: 51 to 75%; 2: 51 to 75%; 3: 76 to 100%

Looking up Cc1sc2c(O)nc(-c3nccn3C)nc2c1-c1ccccc1 [drawing 3912] , I found its inhibition at 20 µM recorded as 25 to 50%

---

Molecular target: KRas G12C mutant (Homo sapiens (Human), UniProt P01116, G12C)
Sequence (P01116-2 other isoform, or with tags, fused parts or gaps G12C): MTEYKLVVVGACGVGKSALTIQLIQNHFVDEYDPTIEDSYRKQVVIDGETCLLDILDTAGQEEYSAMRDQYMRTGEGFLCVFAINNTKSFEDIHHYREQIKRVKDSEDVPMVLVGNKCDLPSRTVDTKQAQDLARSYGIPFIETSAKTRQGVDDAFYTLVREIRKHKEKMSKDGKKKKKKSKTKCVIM
Assay: Ras GTP binding domain inhibition assay (labeled GTP)
Conditions: 20 μM compound; KRas G12C; read-out: % Inhibition at 20 μM of K-Ras mutant and wild-type protein, KRas G12C
endpoint label: inhibition at 20 µM

Looking up Oc1nc(-c2ccccn2)nc2cc(-c3ccccc3)sc12 [drawing 3562] , I found its inhibition at 20 µM recorded as 25 to 50%

Looking up CC(O)CNc1nc(-c2nccn2C)nc2sc(-c3ccccc3)c(-c3ccccc3)c12 (stereo not shown) [drawing 3569] , I found its inhibition at 20 µM recorded as 1 to 25%

Looking up CC(C)Oc1ccc(-c2c(-c3ccccc3)sc3c(O)nc(-c4nccn4C)nc23)cc1F [drawing 3611] , I found its inhibition at 20 µM recorded as 1 to 25%

Looking up COc1nc(-c2ccccn2)nc2c1c(-c1ccccc1)nn2-c1ccccn1 [drawing 3540] , I found its inhibition at 20 µM recorded as 51 to 75%

Looking up COCC(C)Nc1nc(-c2ccccn2)nc2sc(-c3ccncc3)c(-c3ccccc3)c12 (stereo not shown) [drawing 3541] , I found its inhibition at 20 µM recorded as 51 to 75%

Looking up COCCNc1nc(-c2ccccn2)nc2c1c(-c1ccccc1)nn2-c1ccccn1 [drawing 3538] , I found its inhibition at 20 µM recorded as 51 to 75%

Looking up COCCNc1nc(-c2nccn2C)nc2sc(-c3ccncc3)c(-c3ccccc3)c12 [drawing 3582] , I found its inhibition at 20 µM recorded as 51 to 75%

Looking up COCCNc1nc(-c2nccn2C)nc2sc(-c3ccc(OC)cc3)c(-c3ccccc3)c12 [drawing 3597] , I found its inhibition at 20 µM recorded as 1 to 25%

Looking up COc1nc(-c2ccccn2)nc2c(C3CCC3)csc12 [drawing 3480] , I found its inhibition at 20 µM recorded as 25 to 50%

Looking up COc1cnc(-c2ccccn2)nc1O [drawing 3469] , I found its inhibition at 20 µM recorded as 76 to 100%

Hi there! I need inhibition at 20 µM for each item below, if you can.
1. COCCNc1nc(-c2nccn2C)nc2sc(-c3ccccc3Cl)c(-c3ccccc3)c12 [drawing 3581]
2. COc1nc(-c2ccccn2)nc(Oc2cccc(C(F)(F)F)c2)c1O [drawing 3565]
3. Oc1nc(-c2ccccn2)nc2c(C3CC3)csc12 [drawing 3518]
4. Oc1nc(-c2ccccn2)nc2cc(-c3ccncc3)sc12 [drawing 3561]
5. COc1ccc(COC[C@H]2O[C@@H](c3csc4c(=O)[nH]c(-c5ccccn5)nc34)[C@H](O)[C@@H]2O)cc1 [drawing 3533]

Response:
1: 1 to 25%; 2: 25 to 50%; 3: 25 to 50%; 4: 25 to 50%; 5: 25 to 50%

Hi there! I need inhibition at 20 µM for each item below, if you can.
1. OCC1(c2ccc(-c3nc(-c4ccccn4)nc(O)c3Oc3ccccc3)cc2)CC1 [drawing 3534]
2. CCN(CC)CCOc1nc(-c2nccn2C)nc2sc(-c3ccccc3)c(-c3ccccc3)c12 [drawing 3573]

Response:
51 to 75%
25 to 50%

Hi there! I need inhibition at 20 µM for each item below, if you can.
1. COc1nc(-c2cn(C)cn2)nc2sc(-c3ccncc3)c(-c3ccccc3)c12 [drawing 3531]
2. COc1ccc(CCC(=O)Nc2nc(-c3ccccn3)nc3sccc23)cn1 [drawing 3493]
3. COc1cnc(-c2cn(C)cn2)nc1O [drawing 3496]

Response:
1. 25 to 50%
2. 25 to 50%
3. 51 to 75%

Hi there! I need inhibition at 20 µM for each item below, if you can.
1. COCCNc1nc(-c2nccn2C)nc2sc(C)c(-c3ccccc3)c12 [drawing 3584]
2. COCCCNc1nc(-c2nccn2C)nc2sc(-c3ccccc3)c(-c3ccccc3)c12 [drawing 3570]
3. Cn1ccnc1-c1nc(O)c2sc(-c3ccccc3)c(-c3ccccc3)c2n1 [drawing 3588]
4. Cc1sc2c(O)nc(-c3ccccn3)nc2c1-c1ccccc1Cl [drawing 3515]

Response:
["51 to 75%", "51 to 75%", "0%", "1 to 25%"]

Looking up Oc1nc(-c2ccccn2)nc2c(C3CCC3)csc12 [drawing 3478] , I found its inhibition at 20 µM recorded as 25 to 50%
